Test: Inhibition of Trypanosoma cruzi trans-sialidase after 15 mins
Assay Endpoint: IC50 (µM)
The answer is to be given in µM; state only the numeric part.

# return recorded IC50 for entry O=C(COCc1ccccc1)N[C@H]1[C@H](OCc2ccccc2)O[C@@H](CO[C@@H]2O[C@H](CO)[C@H](O)[C@H](O[C@H]3O[C@@H](CO)[C@@H](O)[C@@H](O)[C@@H]3O)[C@H]2O[C@@H]2O[C@H](CO)[C@H](O)[C@H](O)[C@H]2O)[C@H](O[C@@H]2O[C@@H]([C@H](O)CO)[C@H](O)[C@H]2O)[C@H]1O
700

# return recorded IC50 for entry CC(=O)N[C@H]1[C@H](OCc2ccccc2)O[C@@H](CO[C@@H]2O[C@H](CO)[C@H](O)[C@H](O[C@H]3O[C@@H](CO)[C@@H](O)[C@@H](O)[C@@H]3O)[C@H]2O[C@@H]2O[C@H](CO)[C@H](O)[C@H](O)[C@H]2O)[C@H](O[C@@H]2O[C@@H]([C@H](O)CO)[C@H](O)[C@H]2O)[C@H]1O
850

# return recorded IC50 for entry O=C(CO)N[C@H]1[C@H](OCc2ccccc2)O[C@@H](CO[C@@H]2O[C@H](CO)[C@H](O)[C@H](O[C@H]3O[C@@H](CO)[C@@H](O)[C@@H](O)[C@@H]3O)[C@H]2O[C@@H]2O[C@H](CO)[C@H](O)[C@H](O)[C@H]2O)[C@H](O[C@@H]2O[C@@H]([C@H](O)CO)[C@H](O)[C@H]2O)[C@H]1O
610

# return recorded IC50 for entry O=C(COCc1ccccc1)N[C@H]1[C@@H](OCc2ccccc2)O[C@H](CO[C@@H]2O[C@H](CO)[C@H](O)[C@H](O)[C@H]2O)[C@@H](O)[C@@H]1O
1110

# return recorded IC50 for entry OC[C@@H]1O[C@H](O[C@@H]2[C@H](O)[C@H](CO)O[C@H](OCc3ccccc3)[C@H]2O[C@@H]2O[C@H](CO)[C@H](O)[C@H](O)[C@H]2O)[C@@H](O)[C@H](O)[C@@H]1O
1130

# return recorded IC50 for entry CC(=O)N[C@H]1[C@@H](OCc2ccccc2)O[C@H](CO)[C@@H](O[C@@H]2O[C@@H]([C@H](O)CO)[C@H](O)[C@H]2O[C@@H]2O[C@H](CO)[C@H](O)[C@H](O)[C@H]2O)[C@@H]1O
4430

# return recorded IC50 for entry O=C(CO)N[C@H]1[C@@H](OCc2ccccc2)O[C@H](CO[C@@H]2O[C@H](CO)[C@H](O)[C@H](O)[C@H]2O)[C@@H](O)[C@@H]1O
980

# return recorded IC50 for entry CC(=O)N[C@H]1[C@@H](OCc2ccccc2)O[C@H](CO[C@@H]2O[C@H](CO)[C@H](O)[C@H](O)[C@H]2O)[C@@H](O[C@H]2O[C@H]([C@@H](O)CO)[C@@H](O)[C@@H]2O)[C@@H]1O
1330

###

Test: Inhibition of Trypanosoma cruzi trans-sialidase after 15 mins
Assay Endpoint: IC50 (µM)
The answer is to be given in µM; state only the numeric part.

# return recorded IC50 for entry O=C(COCc1ccccc1)N[C@H]1[C@H](OCc2ccccc2)O[C@@H](CO[C@H]2O[C@@H](CO)[C@@H](O)[C@@H](O[C@H]3O[C@@H](CO)[C@@H](O)[C@H](O)[C@@H]3O)[C@@H]2O)[C@H](O[C@@H]2O[C@@H]([C@H](O)CO)[C@H](O)[C@H]2O)[C@H]1O
1140

# return recorded IC50 for entry CC(=O)N[C@H]1[C@@H](OCc2ccccc2)O[C@H](CO[C@@H]2O[C@H](CO)[C@H](O)[C@H](O)[C@H]2O)[C@@H](O)[C@@H]1O
2220

# return recorded IC50 for entry O=C(COCc1ccccc1)N[C@H]1[C@@H](OCc2ccccc2)O[C@H](CO[C@@H]2O[C@H](CO)[C@H](O)[C@H](O)[C@H]2O)[C@@H](O[C@H]2O[C@H]([C@@H](O)CO)[C@@H](O)[C@@H]2O)[C@@H]1O
860

# return recorded IC50 for entry O=C(CO)N[C@H]1[C@H](OCc2ccccc2)O[C@@H](CO[C@H]2O[C@@H](CO)[C@@H](O)[C@@H](O[C@H]3O[C@@H](CO)[C@@H](O)[C@H](O)[C@@H]3O)[C@@H]2O)[C@H](O[C@@H]2O[C@@H]([C@H](O)CO)[C@H](O)[C@H]2O)[C@H]1O
1260

###

Experiment: Inhibition of Trypanosoma cruzi trans-sialidase after 15 mins
Assay Endpoint: pIC50
The value called pIC50 is obtained by taking minus log10 of the concentration in mol/L.

# return recorded pIC50 for entry O=C(CO)N[C@H]1[C@@H](OCc2ccccc2)O[C@H](CO[C@@H]2O[C@H](CO)[C@H](O)[C@H](O)[C@H]2O)[C@@H](O[C@H]2O[C@H]([C@@H](O)CO)[C@@H](O)[C@@H]2O)[C@@H]1O
3.03

# return recorded pIC50 for entry O=C(COCc1ccccc1)N[C@H]1[C@@H](OCc2ccccc2)O[C@H](CO)[C@@H](O[C@@H]2O[C@@H]([C@H](O)CO)[C@H](O)[C@H]2O[C@@H]2O[C@H](CO)[C@H](O)[C@H](O)[C@H]2O)[C@@H]1O
3.07

# return recorded pIC50 for entry CC(=O)N[C@H]1[C@H](OCc2ccccc2)O[C@@H](CO[C@H]2O[C@@H](CO)[C@@H](O)[C@@H](O[C@H]3O[C@@H](CO)[C@@H](O)[C@H](O)[C@@H]3O)[C@@H]2O)[C@H](O[C@@H]2O[C@@H]([C@H](O)CO)[C@H](O)[C@H]2O)[C@H]1O
3.12

# return recorded pIC50 for entry O=C(CO)N[C@H]1[C@@H](OCc2ccccc2)O[C@H](CO)[C@@H](O[C@@H]2O[C@@H]([C@H](O)CO)[C@H](O)[C@H]2O[C@@H]2O[C@H](CO)[C@H](O)[C@H](O)[C@H]2O)[C@@H]1O
2.78
